# measuredOn: Hypoxia inducible factors; HIF-1-alpha, HIF-2-alpha (Homo sapiens, UniProt Q16665+Q99814)
# assayProtocol: Inhibition of HIF1 in human HEK293T cells transfected with pGL3-5HRE-VEGF and pRL-SV40 after 24 hrs by dual luciferase reporter assay
# Assay type: cell-based
# conditionInfo: hek-293t
measuredAttribute: IC50 (nM)

>>> valuemeasured("COc1ccc([C@@H](O)[C@@H](C)Oc2ccc([C@H]3O[C@H](c4ccc(OC)c(OC)c4)[C@H](C)[C@H]3C)cc2OC)cc1OC")
320
>>> valuemeasured("COc1ccc(C(=O)[C@@H](C)Oc2ccc([C@H]3O[C@H](c4ccc(O[C@H](C)C(=O)c5ccc(OC)c(OC)c5)c(OC)c4)[C@H](C)[C@H]3C)cc2OC)cc1OC")
910
>>> valuemeasured("COc1cc([C@H]2O[C@H](c3ccc(O[C@H](C)C(=O)c4ccccc4)c(OC)c3)[C@H](C)[C@H]2C)ccc1O[C@H](C)C(=O)c1ccccc1")
690
>>> valuemeasured("COc1ccc(C(=O)COc2ccc([C@H]3O[C@H](c4ccc(OCC(=O)c5ccc(OC)c(OC)c5)c(OC)c4)[C@H](C)[C@H]3C)cc2OC)cc1OC")
350
>>> valuemeasured("COc1ccc(CCOc2ccc([C@H]3O[C@H](c4ccc(OCCc5ccc(OC)c(OC)c5)c(OC)c4)[C@H](C)[C@H]3C)cc2OC)cc1OC")
1440
>>> valuemeasured("COc1cc([C@H]2O[C@H](c3ccc(O[C@H](C)[C@H](O)c4ccccc4)c(OC)c3)[C@H](C)[C@H]2C)ccc1O[C@H](C)[C@H](O)c1ccccc1")
590
>>> valuemeasured("COc1ccc([C@@H](OC)[C@@H](C)Oc2ccc([C@H]3O[C@H](c4ccc(O[C@H](C)[C@H](OC)c5ccc(OC)c(OC)c5)c(OC)c4)[C@H](C)[C@H]3C)cc2OC)cc1OC")
430
>>> valuemeasured("COc1ccc([C@H](COc2ccc([C@H]3O[C@H](c4ccc(OC[C@H](OC)c5ccc(OC)c(OC)c5)c(OC)c4)[C@H](C)[C@H]3C)cc2OC)OC)cc1OC")
1930

---

# measuredOn: Hypoxia inducible factors; HIF-1-alpha, HIF-2-alpha (Homo sapiens, UniProt Q16665+Q99814)
# assayProtocol: Inhibition of HIF1 in human HEK293T cells transfected with pGL3-5HRE-VEGF and pRL-SV40 after 24 hrs by dual luciferase reporter assay
# Format: cell-based
# conditionInfo: hek-293t
Here, each record is paired with measured IC50 data.
measuredAttribute: IC50 (µM)

>>> valuemeasured("COc1ccc([C@@H](O)COc2ccc([C@H]3O[C@H](c4ccc(OC[C@H](O)c5ccc(OC)c(OC)c5)c(OC)c4)[C@H](C)[C@H]3C)cc2OC)cc1OC")
0.38
>>> valuemeasured("COc1ccc(C(=O)[C@@H](C)Oc2ccc([C@H]3O[C@H](c4ccc(OC)c(OC)c4)[C@H](C)[C@H]3C)cc2OC)cc1OC")
3.7
>>> valuemeasured("COc1ccc(C(=O)[C@@H](C)Oc2ccc([C@H]3O[C@H](c4ccc(O[C@H](C)C(=O)c5ccc(OC)c(O)c5)c(OC)c4)[C@H](C)[C@H]3C)cc2OC)cc1O")
2.11

---

# measuredOn: Hypoxia inducible factors; HIF-1-alpha, HIF-2-alpha (Homo sapiens, UniProt Q16665+Q99814)
# assayProtocol: Inhibition of HIF1 in human HEK293T cells transfected with pGL3-5HRE-VEGF and pRL-SV40 after 24 hrs by dual luciferase reporter assay relative to normoxic condition
# Format: cell-based
# Set-up: concentration or dose not given beside the values
# conditionInfo: HEK-293T, concentration not given here
# inhibition per record follows
measuredAttribute: inhibition (%)

>>> valuemeasured("COc1ccc([C@@H](O)COc2ccc([C@H]3O[C@H](c4ccc(OC[C@H](O)c5ccc(OC)c(OC)c5)c(OC)c4)[C@H](C)[C@H]3C)cc2OC)cc1OC")
94
>>> valuemeasured("COc1ccc([C@@H](O)[C@@H](C)Oc2ccc([C@H]3O[C@H](c4ccc(OC)c(OC)c4)[C@H](C)[C@H]3C)cc2OC)cc1OC")
113
>>> valuemeasured("COc1ccc([C@@H](OC)[C@@H](C)Oc2ccc([C@H]3O[C@H](c4ccc(O[C@H](C)[C@H](OC)c5ccc(OC)c(OC)c5)c(OC)c4)[C@H](C)[C@H]3C)cc2OC)cc1OC")
102
